- target-entity: mutant cKIT (560-576 and V654A) in GIST430/654 cell line (Homo sapiens (Human), UniProt P10721, DEL560-576/V654A)
- Sequence (P10721 other isoform, or with tags, fused parts or gaps V654A/del 1-25/del 560-576 limits assumed): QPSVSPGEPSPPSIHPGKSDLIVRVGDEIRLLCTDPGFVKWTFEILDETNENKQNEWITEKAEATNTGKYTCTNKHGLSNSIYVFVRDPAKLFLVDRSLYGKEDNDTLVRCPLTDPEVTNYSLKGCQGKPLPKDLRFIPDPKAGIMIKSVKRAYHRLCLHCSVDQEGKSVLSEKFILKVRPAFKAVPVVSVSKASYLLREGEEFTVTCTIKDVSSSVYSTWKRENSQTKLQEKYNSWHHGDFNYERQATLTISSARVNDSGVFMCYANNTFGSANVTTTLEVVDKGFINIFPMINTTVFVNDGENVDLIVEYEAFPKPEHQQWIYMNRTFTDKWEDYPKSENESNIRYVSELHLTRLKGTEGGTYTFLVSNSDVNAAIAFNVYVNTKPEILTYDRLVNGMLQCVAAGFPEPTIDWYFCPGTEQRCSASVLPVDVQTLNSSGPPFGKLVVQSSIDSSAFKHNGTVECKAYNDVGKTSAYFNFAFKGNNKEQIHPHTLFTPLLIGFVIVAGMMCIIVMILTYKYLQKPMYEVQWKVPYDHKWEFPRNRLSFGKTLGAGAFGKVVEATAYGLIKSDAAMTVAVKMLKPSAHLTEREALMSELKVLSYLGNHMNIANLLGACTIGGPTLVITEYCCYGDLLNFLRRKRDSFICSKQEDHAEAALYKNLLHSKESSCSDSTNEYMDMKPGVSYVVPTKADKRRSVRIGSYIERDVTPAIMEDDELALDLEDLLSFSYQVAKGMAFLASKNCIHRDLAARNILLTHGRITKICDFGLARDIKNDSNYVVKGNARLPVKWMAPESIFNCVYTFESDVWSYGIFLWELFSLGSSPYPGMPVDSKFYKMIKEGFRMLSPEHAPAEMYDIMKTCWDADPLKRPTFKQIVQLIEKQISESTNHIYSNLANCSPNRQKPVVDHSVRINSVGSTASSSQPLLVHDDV
- run-description: Cellular testing of cKIT mutant inhibitors: phospho-Y307-cKIT Luminex assay in GIST430/654 cells
- Type: cell-based
- experimental-context: Table 1; cKIT autophosphorylation, compounds 45 min; read-out: GIST 430/654 IC50
pIC50: −log10 of the molar value.
Returns met if the recorded pIC50 is greater than or equal to 7, and not met otherwise.

{"compound": "COCCOc1cc2[nH]nc(-c3cc(-c4ccc(C(=O)N5CC(N6CCOCC6)C5)cc4)no3)c2cc1Cl", "label": "met"}

### Prompt Dear colleague, could you confirm whether COCCOc1cc2[nH]nc(-c3cc(-c4ccc(C(=O)N5CC(N6CCOC[C@H]6C)C5)cc4)no3)c2cc1F has pIC50 at or above 7?
### Response met

### Prompt Dear colleague, could you confirm whether COCCOc1cc2[nH]nc(-c3cc(-c4ccc(C(=O)N5C[C@H]6COC[C@H]6C5)cc4)no3)c2cc1F has pIC50 at or above 7?
### Response met

### Prompt Dear colleague, could you confirm whether CCOc1cc2[nH]nc(-c3cc(-c4ccc(C(=O)N5CCN(C6COC6)CC5)cc4)no3)c2cc1F has pIC50 at or above 7?
### Response not met

### Prompt Dear colleague, could you confirm whether COCCOc1cc2[nH]nc(-c3cc(-c4ccc(N5CC[S+]([O-])CC5)nc4)no3)c2cc1F has pIC50 at or above 7?
### Response met

====

- target-entity: mutant cKIT (560-576 and V654A) in GIST430/654 cell line (Homo sapiens (Human), UniProt P10721, DEL560-576/V654A)
- run-description: Cellular testing of cKIT mutant inhibitors: phospho-Y307-cKIT Luminex assay in GIST430/654 cells
- Format: cell-based
- experimental-context: Table 1; cKIT autophosphorylation, compounds 45 min; read-out: GIST 430/654 IC50
metric-name: IC50
Number first, unit second: that is the form wanted.

Example results:
{"substance-smiles": "COCCOc1cc2[nH]nc(-c3cc(-c4ccc(C(=O)N5CCN(C)C[C@@H]5C)cc4)on3)c2cc1Cl", "metric-name": "IC50", "reading": "180 nM"}
{"substance-smiles": "COCCOc1cc2[nH]nc(-c3cc(-c4ccc(C)nc4)no3)c2cc1Cl", "metric-name": "IC50", "reading": "300 nM"}
{"substance-smiles": "COCCOc1cc2[nH]nc(-c3cc(-c4ccc(C(=O)N5CC(OC)C5)cc4)no3)c2cc1F", "metric-name": "IC50", "reading": "61 nM"}

Here is the next item to consider.
### Prompt Fill in IC50 for record COCCOc1cc2[nH]nc(-c3cc(-c4ccc(C(=O)N5CC(N6CCOC[C@@H]6C)C5)cc4)no3)c2cc1F
### Response 19 nM

====

- target-entity: mutant cKIT (560-576 and V654A) in GIST430/654 cell line (Homo sapiens (Human), UniProt P10721, DEL560-576/V654A)
- run-description: Cellular testing of cKIT mutant inhibitors: phospho-Y307-cKIT Luminex assay in GIST430/654 cells
- Type: cell-based
- experimental-context: Table 1; cKIT autophosphorylation, compounds 45 min; read-out: GIST 430/654 IC50
- Procedure: Assay Principle for Cellular Testing of cKIT Mutant Inhibitors The GIST430/654 cell line expressing mutated constitutively active cKIT receptor tyrosine kinase ([…]560-576 and V654A) was employed for assessing cellular potency of compounds. Cellular activity of mutant cKIT was determined by the degree of cKIT autophosphorylation at tyrosine 307 using a Luminex-based bead assay. […] The amount of phospho-Y307-cKIT was determined in a Luminex 200 instrument measuring 100 events per well within 60 seconds. […]
// NB: equality with 600 nM counts as not fulfilled; only IC50 strictly below is fulfilled

Below are worked cases with known answers.
{"substance-smiles": "COCCOc1cc2[nH]nc(-c3cc(-c4nc(C(=O)N5CC(N6CCOCC6)C5)cs4)no3)c2cc1F", "label": "not fulfilled"}
{"substance-smiles": "COCCOc1cc2[nH]nc(-c3cc(-c4ccc(C(=O)N5CCC[C@@H]5CNS(C)(=O)=O)cc4)no3)c2cc1F", "label": "fulfilled"}
{"substance-smiles": "COCCOc1cc2[nH]nc(-c3cc(-c4ccc(C(=O)N(C)C)nc4)no3)c2cc1F", "label": "not fulfilled"}
{"substance-smiles": "COCCOc1cc2[nH]nc(-c3cc(-c4ccc(S(C)(=O)=O)cc4)no3)c2cc1F", "label": "fulfilled"}
{"substance-smiles": "COCCOc1cc2[nH]nc(-c3cc(-c4ccc(C(=O)N5Cc6cn[nH]c6C5)cc4)no3)c2cc1F", "label": "fulfilled"}
{"substance-smiles": "COCCOc1cc2[nH]nc(-c3cc(-c4ccc(C(=O)N5CCC[C@H]5CS(C)(=O)=O)cc4)no3)c2cc1F", "label": "fulfilled"}

Now, please, on to the next molecule.
### Prompt Report whether reported IC50 is lower than 600 nM (strictly) for COCCOc1cc2[nH]nc(-c3cc(-c4ccc(C(=O)N5CC(N6CCOCC6)C5)nc4)no3)c2cc1F
### Response fulfilled

====

# IC50 per entry
- target-entity: mutant cKIT (560-576 and V654A) in GIST430/654 cell line (Homo sapiens (Human), UniProt P10721, DEL560-576/V654A)
- run-description: Cellular testing of cKIT mutant inhibitors: phospho-Y307-cKIT Luminex assay in GIST430/654 cells
- Type: cell-based
- experimental-context: Table 2, corresponding triazole derivatives; read-out: GIST 430/654 IC50
Please respond with the number in nM and leave the unit unwritten.

Example results:
{"compound": "COCCOc1cc2[nH]nc(-c3cn(-c4ccc(C(=O)N5CCOCC5)cc4)nn3)c2cc1F [reference compound]", "IC50 / nM": 490}
{"compound": "COCCOc1cc2[nH]nc(-c3cn(-c4ccc(C(=O)N5CC[C@H]5C(C)(C)O)cc4)nn3)c2cc1F [reference compound]", "IC50 / nM": 240}

### Prompt Fill in IC50 for record COCCOc1cc2[nH]nc(-c3cn(-c4ccc(C(=O)N5CCOC[C@H]5C)cc4)nn3)c2cc1F [reference compound]
### Response 230

### Prompt Fill in IC50 for record COCCOc1cc2[nH]nc(-c3cn(-c4ccc(C(=O)N5CC(c6ccncc6)C5)cc4)nn3)c2cc1F [reference compound]
### Response 160

### Prompt Fill in IC50 for record COCCOc1cc2[nH]nc(-c3cn(-c4ccc(C(=O)N5CCC[C@H]5C(C)(C)O)cc4)nn3)c2cc1F [reference compound]
### Response 79

====

# pIC50 per entry
- target-entity: mutant cKIT (560-576 and V654A) in GIST430/654 cell line (Homo sapiens (Human), UniProt P10721, DEL560-576/V654A)
- run-description: Cellular testing of cKIT mutant inhibitors: phospho-Y307-cKIT Luminex assay in GIST430/654 cells
- Assay type: cell-based
- experimental-context: Table 1; cKIT autophosphorylation, compounds 45 min; read-out: GIST 430/654 IC50
Reminder that pIC50 means the negative base-10 logarithm of the concentration expressed in mol/L.

Example results:
{"molecule": "COCCOc1cc2[nH]nc(-c3cc(-c4ccc(C(=O)N5CCC6(COC6)C5)cc4)no3)c2cc1F [A158]", "pIC50": 7.49}
{"molecule": "COCCOc1cc2[nH]nc(-c3cc(-c4ccc(C(=O)N5CC(c6ccccn6)C5)cc4)no3)c2cc1F [A149]", "pIC50": 7.34}
{"molecule": "COCCOc1cc2[nH]nc(-c3cc(-c4ccc(C(=O)N5CCC56COC6)cc4)no3)c2cc1F [A112]", "pIC50": 7.49}
{"molecule": "COCCOc1cc2[nH]nc(-c3cc(-c4ccc(C(=O)NCCN(C)C)cc4)no3)c2cc1F [A72]", "pIC50": 6.49}
{"molecule": "COCCOc1cc2[nH]nc(-c3cc(-c4ccc(-n5cncn5)cc4)no3)c2cc1F [A21]", "pIC50": 6.24}
{"molecule": "COCCOc1cc2[nH]nc(-c3cc(-c4ccc(C(=O)N5CCCN(C6COC6)CC5)cc4)no3)c2cc1F [A198]", "pIC50": 7.14}

### Prompt Fill in pIC50 for record COCCOc1cc2[nH]nc(-c3cc(-c4ccc(S(=O)(=O)N5CCOCC5)cc4)no3)c2cc1F [A227]
### Response 6.77

### Prompt Fill in pIC50 for record COCCOc1cc2[nH]nc(-c3cc(-c4ccc(N5CC[C@@H]6[C@@H]5CCN6C)cc4)no3)c2cc1F (relative stereo) [A126]
### Response 6.70
